tested on: 786-0; assay: NCI tumour cell line growth inhibition, 48 h
Active and inactive are the calls of the source. Cut-off read from the data, not from the text of the source: active = GI50 up to about 1.1 µM and inactive = higher.
Assign a class; possible classes are True (active), False (inactive)

Recorded call for `OC(c1ccc(F)cc1)(c1ccc(F)cc1)C1CC1` ?
False

Recorded call for `OB1OCc2ccccc21` ?
False

Recorded call for `Clc1ccc(NCNC2Nc3ccccc3N2)cc1Cl` ?
False

Recorded call for `Cc1ccc(S(=O)(=O)NC(=O)NCC(=O)NCC(=O)O)cc1` ?
False

More entries:
Recorded call for CCC(=O)c1c(NOC2OCC(OC(C)=O)C(OC(C)=O)C2OC(C)=O)nc(OC)n(C)c1=O (stereo not drawn) ?
False

Recorded call for CC(=O)Oc1ccc2c(c1OC(C)=O)CCC1C2=CC[C@]2(C)C(=O)CCC12 (stereo partly drawn) ?
False

Recorded call for COC(=O)CC(C(C(C)=O)C(=O)OCc1ccccc1)N1C(=O)OCC1c1ccccc1 (stereo not drawn) ?
False

Recorded call for `CC(C)C(=O)/C=C/S/C=C/C(=O)C(C)C` ?
False

Recorded call for `Cc1ccc(N/N=C/C2=CC(C)(C)C(C#N)(C#N)C(O)=C2C#N)cc1` ?
False

---

system: IGROV-1; assay: NCI tumour cell line growth inhibition, 48 h
Calls of active or inactive are those of the source. Cut-off read from the data, not from the text of the source: active = GI50 up to about 1.1 µM and inactive = higher.
REPORTED_METRIC: GI50

See these solved cases before continuing.
The value of GI50 measured for the molecule CCCCCc1cc2cc3c(c(O)c2c(=O)[nH]1)C1(CC3)C(=O)c2c(O)c3c(c(O)c2C1=O)C(=O)C(OC)=CC3=O (stereo unspecified) turned out to be 1.28 µM (inactive)

The value of GI50 measured for the molecule `Cc1cc(S(=O)(=O)[N-]/C(=N/S(=O)(=O)c2cc(Cl)sc2Cl)[n+]2ccc(N(C)C)cc2)c(S)cc1Cl` turned out to be > 100 µM (inactive)

The value of GI50 measured for the molecule CC(=O)Oc1ccc2c(c1OC(C)=O)CCC1C2=CC[C@]2(C)C(=O)CCC12 (stereo partly specified) turned out to be 4.73 µM (inactive)

The value of GI50 measured for the molecule O=S1(=O)c2ccccc2N=C(c2ccccc2Cl)CC1c1ccc(F)cc1 (stereo unspecified) turned out to be 17.4 µM (inactive)

The value of GI50 measured for the molecule `CC(C)=CCNc1ncnc2c1ncn2CCC(=O)O` turned out to be > 100 µM (inactive)

Let us examine a further case.
The value of GI50 measured for the molecule `COc1ccc(N2C(=O)C(=O)N(c3ccccc3[N+](=O)[O-])C2=S)cc1` turned out to be 34.8 µM (inactive)

---

test system: A549; assay: NCI tumour cell line growth inhibition, 48 h
Active and inactive are the calls of the source. Cut-off read from the data, not from the text of the source: active = GI50 up to about 1.1 µM and inactive = higher.
Assign a class; possible classes are active, inactive

Worked cases, answers included:
Recorded call for `Cc1cnc(-n2c(C)nc3cc(Cl)ccc3c2=O)s1` ?
inactive

Recorded call for `Fc1ccccc1/N=c1\oc2ccc(Br)cc2cc1-c1nc2ccccc2[nH]1` ?
inactive

Recorded call for `CCN1CCCCC(=N\O)/C(=N/O)CCCC1` ?
inactive

Recorded call for `N#Cc1c(NC(=O)CCC(=O)O)ccc2ccccc12` ?
inactive

Recorded call for `O=c1[nH]c2c(nc1NC13CC4CC(CC(C4)C1)C3)c(=O)oc1ccccc12` ?
inactive

Recorded call for CC(c1ccccc1)N1CC(C)(c2ccccc2)N(O)C(c2ccccc2)C1C (stereo not drawn) ?
inactive

Recorded call for CNC1C(=O)C(C)C(O)(C(CC(C)C(O)/C=C/C=C/CNC(=O)C(C)(C)C(O)\C(C)=C/C=C\C=C\Cc2cnc(C)o2)OC)C12C(=O)OC2C.CNC1C(=O)C(C)C(O)(C(CC(C)C(O)/C=C/C=C/CNC(=O)C(C)(C)C(O)\C(C)=C/C=C\C=C\Cc2cnc(C)o2)OC)C12C(=O)OC2COC (stereo not drawn) ?
active

More entries:
Recorded call for CN(C)[C@H]1CC[C@H]2[C@@H]3CCC4C[C@@H](NC(=O)NC(Cc5ccccc5)c5nccs5)CC[C@]4(C)[C@H]3CC[C@]12C (stereo partly drawn) ?
inactive
